Taken from ChEMBL document CHEMBL4342467.

Assay: Tmax in Sprague-Dawley rat at 10 mg/kg, po by LC-MS analysis
Assay type: ADME, organism-based
Settings: in vivo

>  <MOLECULAR STRING>
NC(=O)c1c(NC(=O)c2ccccc2Cl)sc2c1CCN(C(=S)Nc1ccccc1Cl)C2

>  <UNIT TEXT>
min

>  <Tmax>
45

$$$$

----------
Biological target: Mitogen-activated protein kinase 7 (Homo sapiens)
Experiment: Inhibition of ERK5 (unknown origin) at 1 uM by Z'-Lyte assay relative to control
# inhibition values compiled below
RESULT TYPE: inhibition (%)

>  <MOLECULAR STRING>
COc1ccccc1NC(=S)N1CCc2c(sc(NC(=O)c3ccccc3OC)c2C(N)=O)C1

>  <RESULT TYPE>
inhibition

>  <QUANTITATIVE RESULT>
32

$$$$
>  <MOLECULAR STRING>
NC(=O)c1c(NC(=O)c2ccccc2Cl)sc2c1CCN(Cc1ccccc1Cl)C2

>  <RESULT TYPE>
inhibition

>  <QUANTITATIVE RESULT>
65.1

$$$$
>  <MOLECULAR STRING>
Cc1ccc(C(=O)Nc2sc3c(c2C(N)=O)CCN(C(=O)Nc2ccccc2Cl)C3)cc1

>  <RESULT TYPE>
inhibition

>  <QUANTITATIVE RESULT>
53.8

$$$$
>  <MOLECULAR STRING>
NC(=O)c1c(NC(=O)c2ccc(C(F)(F)F)cc2)sc2c1CCN(Cc1ccc(Cl)cc1Cl)C2

>  <RESULT TYPE>
inhibition

>  <QUANTITATIVE RESULT>
40

$$$$
>  <MOLECULAR STRING>
NC(=O)c1c(NC(=O)c2ccccc2F)sc2c1CCN(Cc1cccc(Cl)c1)C2

>  <RESULT TYPE>
inhibition

>  <QUANTITATIVE RESULT>
42.5

$$$$
>  <MOLECULAR STRING>
Cc1ccccc1NC(=S)N1CCc2c(sc(NC(=O)c3ccccc3C)c2C(N)=O)C1

>  <RESULT TYPE>
inhibition

>  <QUANTITATIVE RESULT>
37.1

$$$$
>  <MOLECULAR STRING>
NC(=O)c1c(NC(=O)c2ccccc2I)sc2c1CCN(C(=S)Nc1ccccc1C(F)(F)F)C2

>  <RESULT TYPE>
inhibition

>  <QUANTITATIVE RESULT>
64.8

$$$$
>  <MOLECULAR STRING>
NC(=O)c1c(NC(=O)c2ccccc2Cl)sc2c1CCN(Cc1cc(Cl)cc(Cl)c1)C2

>  <RESULT TYPE>
inhibition

>  <QUANTITATIVE RESULT>
22.9

$$$$
>  <MOLECULAR STRING>
NC(=O)c1c(NC(=O)c2ccccc2Cl)sc2c1CCN(C(=O)Nc1cc(C(F)(F)F)cc(C(F)(F)F)c1)C2

>  <RESULT TYPE>
inhibition

>  <QUANTITATIVE RESULT>
80.3

$$$$
